Protocol Description: chemical genetic growth profiling, strain panel (AID 1159580);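 also: tested at 20 µM; growth read once vehicle control cultures reached saturation at 30 °C; 1 = growth at the plate median or of vehicle wells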
Measurement Setup: S. cerevisiae deletion strains, growth OD, locus YCR088W, strain abp1, stronger effect = lower value
Out of some 5,500 compounds screened, about 2,000 (36%) were called active. About 18% were inconclusive and are not listed. The list shows a part of the results.
This listing pairs compounds with measured normalized growth.
Outcome Measure: normalized growth

INSERT INTO assay_data (compound, reported_measurement) VALUES
  ('NCCSSCCN', 0.991),
  ('COC1=C(OC)C(=O)C(C/C=C(\C)CC/C=C(\C)CC/C=C(\C)CC/C=C(/C)CC/C=C(\C)CC/C=C(\C)CC/C=C(\C)CC/C=C(\C)CC/C=C(\C)CCC=C(C)C)=C(C)C1=O', 0.972),
  ('OCCN1C[C@@H](O)[C@@H](O)C(O)C1CO (stereo partly specified)', 0.997),
  ('CC(CCc1ccccc1)NC(C)C(O)c1ccc(O)cc1 (stereo unspecified)', 1.01),
  ('CNC(C)[C@H](O)c1ccccc1 (stereo partly specified)', 0.989),
  ('Cc1cccc(C)c1OCC(C)N (stereo unspecified)', 1),
  ('CN1CCC(=C2c3ccccc3CCc3sccc32)CC1', 0.979),
  ('CCCCCCNC(=O)n1cc(F)c(=O)[nH]c1=O', 0.934),
  ('CC1CC2C3CC(F)C4=CC(=O)C=CC4(C)C3(F)C(O)CC2(C)C1(O)C(=O)CO (stereo unspecified)', 1),
  ('CN1CCC(=C2c3ccccc3CC(=O)c3sccc32)CC1', 0.973),
  ('N=c1ccn2c(n1)O[C@@H]1C2O[C@H](CO)[C@H]1O (stereo partly specified)', 0.993),
  ('CC1=C(C/C=C(\C)CCC[C@H](C)CCC[C@H](C)CCCC(C)C)C(=O)c2ccccc2C1=O', 1),
  ('CN[C@@H](C)[C@@H](O)c1ccccc1', 0.995),
  ('CCN(CC)CCNC(=O)c1cc(Br)c(N)cc1OC', 0.981),
  ('CN1CCC(=C2c3ccccc3Sc3ccccc32)CC1', 1.03),
  ('O=C1C=CC(=C(c2ccc(O)cc2)c2ccc(O)cc2)C=C1', 0.975);

* * *

Protocol Description: chemical genetic growth profiling, strain panel (AID 1159580)
Measurement Setup: S. cerevisiae deletion strains, growth OD, locus YPL106C, strain sse1, stronger effect = lower value
Hit rate of the full screen: of about 5,500 compounds, about 2,000 (36%) were called active. About 18% were inconclusive and are not listed. Some of the results follow.
Lab note: compare normalized growth with 1, writing yes if less and no if equal or more.

INSERT INTO measurements (compound, qualitative_label) VALUES
  ('CNC(C)[C@H](O)c1ccccc1 (some centres undefined)', 'no'),
  ('C[N+](C)(C)CCOC(N)=O', 'no'),
  ('CCCCCCCCCCCCCCCC(=O)OC/C=C(C)/C=C/C=C(C)/C=C/C1=C(C)CCCC1(C)C', 'no'),
  ('CC(C[N+](C)(C)C)OC(N)=O (centres undefined)', 'no'),
  ('CCCCNc1cc(C(=O)O)cc(S(N)(=O)=O)c1Oc1ccccc1', 'yes'),
  ('CC1=C(/C=C/C(C)=C/C=C/C(C)=C/C=C/C=C(C)/C=C/C=C(C)/C=C/C(=O)[C@]2(C)C[C@@H](O)CC2(C)C)C(C)(C)C[C@H](O)C1', 'no'),
  ('CN[C@@H](C)[C@@H](O)c1ccccc1', 'yes'),
  ('CCC(=O)O[C@H]1[C@H](O[C@@H]2[C@@H](C)[C@H](O[C@H]3C[C@@](C)(OC)[C@@H](O)[C@H](C)O3)[C@@H](C)C(=O)O[C@H](CC)[C@@](C)(O)[C@H](O)[C@@H](C)C(=O)[C@H](C)C[C@@]2(C)O)O[C@H](C)C[C@@H]1N(C)C', 'no');

* * *

Protocol Description: chemical genetic growth profiling, strain panel (AID 1159580);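 also: tested at 20 µM; growth read once vehicle control cultures reached saturation at 30 °C; 1 = growth at the plate median or of vehicle wells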
Measurement Setup: S. cerevisiae deletion strains, growth OD, locus YNL153C, strain GIM3
The campaign covered roughly 5,500 compounds. About 2,000 (36%) were called active. Inconclusive results (about 18%) are left out. Rule as the data show it: active = normalized growth mostly below about 0.91 (no sharp cut-off); inconclusive = no clear call, values can overlap the other calls; inactive = mostly above about 0.92. This is one part of the list.
Classes used: TRUE = active, FALSE = inactive

INSERT INTO assay_data (compound, qualitative_label) VALUES
  ('O=C(O)c1c2ccccc2cc2ccccc12', 'FALSE'),
  ('CC[C@H](/C=C/C(C)C1CCC2C3CCC4=CC(=O)CC[C@]4(C)C3CC[C@]12C)C(C)C (some centres undefined)', 'FALSE'),
  ('CC(=O)C1CCC2C3CC(=O)C4=CC(=O)CCC4(C)C3CCC12C (centres undefined)', 'FALSE'),
  ('c1ccc2sc(C3(N4CCCCC4)CCCCC3)cc2c1', 'FALSE'),
  ('CCOC(=O)COc1nc(-c2cccs2)cc(C(F)(F)F)c1C#N', 'FALSE'),
  ('CO[C@H]1[C@H](O)[C@H](O[C@H]2CC[C@]3(C)C4CC[C@]5(C)C(C6=CC(=O)OC6)CC[C@]5(O)C4CC[C@@H]3C2)O[C@@H](C)[C@@H]1O (some centres undefined)', 'FALSE'),
  ('CCOC(=O)c1cc(C)nc(Sc2ccccc2)c1C#N', 'TRUE'),
  ('CC(=O)[C@H]1CCC2C3CCC4=CC(=O)CC[C@]4(C)C3CC[C@@]21C (some centres undefined)', 'FALSE'),
  ('C=C1C2CC[C@H]3[C@]4(C)C[C@H](OC5OC(CO)C(OS(=O)(=O)O)C(OS(=O)(=O)O)C5OC(=O)CC(C)C)C[C@@H](C(=O)O)[C@H]4CC[C@]3(C2)[C@H]1O (some centres undefined)', 'FALSE');

* * *

Protocol Description: chemical genetic growth profiling, strain panel (AID 1159580);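 also: tested at 20 µM; growth read once vehicle control cultures reached saturation at 30 °C; 1 = growth at the plate median or of vehicle wells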
Measurement Setup: S. cerevisiae deletion strains, growth OD, locus YGR229C, strain SMI1, stronger effect = lower value
Hit rate of the full screen: of about 5,500 compounds, about 2,000 (36%) were called active. Another 18% or so got no clear call; they are omitted. The list shows a part of the results.
Outcome Measure: normalized growth

INSERT INTO assay_data (compound, reported_measurement) VALUES
  ('COc1ccc(NC(=O)c2cc(C(F)(F)F)cc(C(F)(F)F)c2)cn1', 0.959),
  ('CC(Oc1ccccc1)C(=O)N[C@@H]1C(=O)N2[C@@H]1SC(C)(C)[C@@H]2C(=O)O (stereo not given in full)', 0.999),
  ('CC(C)(C)NC[C@H](O)COc1nsnc1N1CCOCC1', 1.03),
  ('CC(=O)OCC1=C(C(=O)O)N2C(=O)C(NC(=O)CSc3ccncc3)C2SC1 (stereo not given)', 0.99),
  ('COc1cc(O)c(C(=O)/C=C/c2ccccc2)c(OC)c1', 0.681),
  ('C[C@@H]1O[C@@H](O[C@H]2C[C@@H](O)[C@]3(CO)[C@H]4[C@H](O)C[C@]5(C)[C@@H](C6=CC(=O)OC6)CC[C@]5(O)[C@@H]4CC[C@]3(O)C2)[C@H](O)[C@H](O)[C@H]1O', 0.993),
  ('CC(C[N+](C)(C)C)OC(N)=O (stereo not given)', 1.03),
  ('C[N+](C)(C)CCOC(=O)CCC(=O)OCC[N+](C)(C)C', 1.04),
  ('CC1(C(=O)O)C2CCC(O2)C1(C)C(=O)O (stereo not given)', 1),
  ('CCC(NC(C)C)C(O)c1ccc(O)c(O)c1 (stereo not given)', 0.976);

* * *

Protocol Description: chemical genetic growth profiling, strain panel (AID 1159580);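 also: tested at 20 µM; growth read once vehicle control cultures reached saturation at 30 °C; 1 = growth at the plate median or of vehicle wells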
Measurement Setup: S. cerevisiae deletion strains, growth OD, locus YDL214C, strain PRR2
Out of some 5,500 compounds screened, about 2,000 (36%) were called active. Another 18% or so got no clear call; they are omitted. Cut-off read from the data, not from the text of the source: active = normalized growth mostly below about 0.91 (no sharp cut-off); inconclusive = no clear call, values can overlap the other calls; inactive = mostly above about 0.92. The list shows a part of the results.
Classes used: active, inactive

INSERT INTO assay_data (input_smiles, qualitative_label) VALUES
  ('Cc1nn(Cc2cccc(C(=O)Nc3ccc(Cl)cc3)c2)c(C)c1Br', 'inactive'),
  ('Cc1ccc(-c2csc(-c3cccnc3)n2)c(C)c1', 'inactive'),
  ('O=S(=O)(Nc1cccc2nsnc12)c1cc(Cl)sc1Cl', 'inactive'),
  ('COc1ccc(CN2CSC(=S)N(Cc3ccc(OC)cc3)C2)cc1', 'inactive'),
  ('Nc1ccccc1SCc1c(Cl)cccc1Cl', 'inactive'),
  ('O=c1c(Sc2ccc(Cl)cc2)c(Sc2ccc(Cl)cc2)c1=O', 'active'),
  ('CC(=O)CSc1nnc(-c2ccc(C(C)(C)C)cc2)n1-c1ccc(Cl)cc1', 'inactive'),
  ('Cc1ccc(Sc2c(Sc3ccc(C)cc3)c(=O)c2=O)cc1', 'active'),
  ('Cc1ccccc1C(=O)Oc1ccc(C(F)(F)F)cc1[N+](=O)[O-]', 'inactive'),
  ('O=C(CSc1nnnn1-c1ccccc1)c1ccccc1', 'inactive'),
  ('O=C(Oc1ccc(C(F)(F)F)cc1[N+](=O)[O-])c1cccc(Cl)c1', 'inactive');

Entry source: PubChem BioAssay AID1159580
